system: C. albicans cells; test: Propidium iodide uptake in response to antifungal treatment (flow cytometry); assay type: cell-based, Candida albicans; settings: 50 µg/mL, 30 min, 30 °C, 1/2 PDB, flow cytometry
recorded-endpoint: treated cells no longer viable (PI positive)

Quote treated cells no longer viable (PI positive) reported for `Cc1cc(C2CCCCC2)n(O)c(=O)c1` please.
~ 20%

The origin of these recorded values is paper PMC10672221.
